# Study system: recombinant catalytic a domain of human PDI A1 (PDIa) (Homo sapiens)
# Construct: made in house; host or cells: Escherichia coli BL21-Gold (DE3)
# Sequence (P07237 with tags, fused parts or gaps): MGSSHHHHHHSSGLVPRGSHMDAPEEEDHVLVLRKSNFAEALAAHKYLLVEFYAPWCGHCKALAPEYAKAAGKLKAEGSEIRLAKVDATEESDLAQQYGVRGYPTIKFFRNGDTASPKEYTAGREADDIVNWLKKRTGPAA
# Method summary: Insulin aggregation assay (PDIa reductase activity)
# Format: biochemical
# Test conditions: Table 5
Measured endpoint: Insulin Assay (either active or inactive)

Cc1cc(C)c2c(=O)n(CN3CCN(C(=O)C4CC4)CC3)sc2n1
Active
O=c1ssc2ccccc12
not active
C[C@@H](NC(=O)c1ccccc1S)c1ccccc1
not active
O=c1c2cccnc2sn1CCC1CCNCC1
Active

Report Insulin Assay (either active or inactive) for every entry below.
1. O=C(Nc1ccc(N2CCOCC2)cc1)c1ccccc1S
2. O=C(Nc1ccccc1)c1ccccc1S
3. O=c1c2ccccc2sn1CN1CCCCC1
4. O=C(Nc1ccccc1)n1sc2ccccc2c1=O
5. NC(=O)c1cccc(F)c1SSc1c(F)cccc1C(N)=O
6. Cc1nnc2sn(C(C)N3CCC(C(=O)C4CC4)CC3)c(=O)c2c1C (centres unmarked)
7. O=c1c2ccccc2sn1-c1ccc(Oc2ccccc2)cc1
8. Cn1sccc1=O

not active
not active
Active
not active
Active
Active
not active
Active

Ref: patent US20180092908A1
